# STUDY SYSTEM: Lipolase® 100L (Thermomyces lanuginosus)
# Construct: purchased Sigma-Aldrich
# ASSAY INFO: Lipase storage stability in liquid formulations at 37° C. (pNP-valerate activity)
# Format: biochemical, Thermomyces lanuginosa
# ASSAY SETUP: base formulation IV. (Lipolase 0.2 wt%, tested compound 2.0 wt%); 14 d storage at 37° C.
lipase activity, 14 d for assorted compounds
OUTCOME MEASURE: lipase activity, 14 d (%)

{"COMPOUND": "CCCCOC(=O)CC(CC(=O)OCCCC)(OC(C)=O)C(=O)OCCCC [A.4, Acetyltributylcitrate]", "OUTCOME MEASURE": "lipase activity, 14 d", "OUTPUT UNIT": "%", "OBSERVED": 93}
{"COMPOUND": "O=C([O-])CC(O)(CC(=O)[O-])C(=O)[O-].[Na+].[Na+].[Na+] [B.2, citric acid trisodiumsalt, reference compound]", "OUTCOME MEASURE": "lipase activity, 14 d", "OUTPUT UNIT": "%", "OBSERVED": 68}
{"COMPOUND": "CCOC(=O)CC(O)(CC(=O)O)C(=O)O (centres unmarked) [A.6, Monoethylcitrate]", "OUTCOME MEASURE": "lipase activity, 14 d", "OUTPUT UNIT": "%", "OBSERVED": 89}
{"COMPOUND": "CCOC(=O)C(=O)OCC [B.3, diethyloxalate, reference compound]", "OUTCOME MEASURE": "lipase activity, 14 d", "OUTPUT UNIT": "%", "OBSERVED": 74}
{"COMPOUND": "CCOC(=O)CC(O)(CC(=O)OCC)C(=O)OCC [A.1, Triethylcitrate]", "OUTCOME MEASURE": "lipase activity, 14 d", "OUTPUT UNIT": "%", "OBSERVED": 93}
{"COMPOUND": "CCCCOC(=O)CC(O)(CC(=O)OCCCC)C(=O)OCCCC [A.3, Tributylcitrate]", "OUTCOME MEASURE": "lipase activity, 14 d", "OUTPUT UNIT": "%", "OBSERVED": 95}
{"COMPOUND": "O=C(O)CC(O)(CC(=O)O)C(=O)O [B.1, citric acid, reference compound]", "OUTCOME MEASURE": "lipase activity, 14 d", "OUTPUT UNIT": "%", "OBSERVED": 70}
{"COMPOUND": "CC(=O)OCC(COC(C)=O)OC(C)=O [B.4, glyceroltriacetate (triacetine), reference compound]", "OUTCOME MEASURE": "lipase activity, 14 d", "OUTPUT UNIT": "%", "OBSERVED": 73}

====

# STUDY SYSTEM: Lipolase® 100L (Thermomyces lanuginosus)
# Construct: purchased Sigma-Aldrich
# ASSAY INFO: Lipase storage stability in liquid formulations at 37° C. (pNP-valerate activity)
# Type: biochemical, Thermomyces lanuginosa
# ASSAY SETUP: base formulation II. (Lipolase 0.2 wt%, tested compound 2.5 wt%); T0; relative to 100% value of reference formulation at time 0

{"COMPOUND": "O=C(CC(O)(CC(=O)OCc1ccccc1)C(=O)OCc1ccccc1)OCc1ccccc1 [A.8, Tribenzylcitrate]", "OUTPUT UNIT": "%", "lipase activity, T0": 97}
{"COMPOUND": "CCOC(=O)CC(O)(CC(=O)OCC)C(=O)OCC [A.1, Triethylcitrate]", "OUTPUT UNIT": "%", "lipase activity, T0": 100}
{"COMPOUND": "O=C([O-])CC(O)(CC(=O)[O-])C(=O)[O-].[Na+].[Na+].[Na+] [B.2, citric acid trisodiumsalt, reference compound]", "OUTPUT UNIT": "%", "lipase activity, T0": 98}
{"COMPOUND": "CCOC(=O)CC(CC(=O)OCC)(OC(C)=O)C(=O)OCC [A.5, Acetyltriethylcitrate]", "OUTPUT UNIT": "%", "lipase activity, T0": 102}
{"COMPOUND": "CC(=O)OCC(COC(C)=O)OC(C)=O [B.4, glyceroltriacetate (triacetine), reference compound]", "OUTPUT UNIT": "%", "lipase activity, T0": 95}
{"COMPOUND": "CCOC(=O)CC(O)(CC(=O)O)C(=O)O (stereo not drawn) [A.6, Monoethylcitrate]", "OUTPUT UNIT": "%", "lipase activity, T0": 102}

====

compounds and their reported lipase activity, 28 d
# STUDY SYSTEM: Lipolase® 100L (Thermomyces lanuginosus)
# Construct: purchased Sigma-Aldrich
# ASSAY INFO: Lipase storage stability in liquid formulations at 37° C. (pNP-valerate activity)
# Format: biochemical, Thermomyces lanuginosa
# ASSAY SETUP: base formulation IV. (Lipolase 0.2 wt%, tested compound 2.0 wt%); 28 d storage at 37° C.
OUTCOME MEASURE: lipase activity, 28 d (%)

{"COMPOUND": "CCOC(=O)C(=O)OCC [B.3, diethyloxalate, reference compound]", "OUTPUT UNIT": "%", "OBSERVED": 51}
{"COMPOUND": "CCCCOC(=O)CC(CC(=O)OCCCC)(OC(C)=O)C(=O)OCCCC [A.4, Acetyltributylcitrate]", "OUTPUT UNIT": "%", "OBSERVED": 86}
{"COMPOUND": "CCOC(=O)CC(O)(CC(=O)OCC)C(=O)OCC [A.1, Triethylcitrate]", "OUTPUT UNIT": "%", "OBSERVED": 85}
{"COMPOUND": "O=C([O-])CC(O)(CC(=O)[O-])C(=O)[O-].[Na+].[Na+].[Na+] [B.2, citric acid trisodiumsalt, reference compound]", "OUTPUT UNIT": "%", "OBSERVED": 40}
{"COMPOUND": "O=C(O)CC(O)(CC(=O)O)C(=O)O [B.1, citric acid, reference compound]", "OUTPUT UNIT": "%", "OBSERVED": 43}
{"COMPOUND": "CC(=O)OCC(COC(C)=O)OC(C)=O [B.4, glyceroltriacetate (triacetine), reference compound]", "OUTPUT UNIT": "%", "OBSERVED": 50}
{"COMPOUND": "CCCCOC(=O)CC(O)(CC(=O)OCCCC)C(=O)OCCCC [A.3, Tributylcitrate]", "OUTPUT UNIT": "%", "OBSERVED": 88}
{"COMPOUND": "CCOC(=O)CC(O)(CC(=O)O)C(=O)O (centres unmarked) [A.6, Monoethylcitrate]", "OUTPUT UNIT": "%", "OBSERVED": 85}

====

# STUDY SYSTEM: Lipolase® 100L (Thermomyces lanuginosus, UniProt O59952)
# Construct: purchased Sigma-Aldrich
# Sequence (O59952 23-291): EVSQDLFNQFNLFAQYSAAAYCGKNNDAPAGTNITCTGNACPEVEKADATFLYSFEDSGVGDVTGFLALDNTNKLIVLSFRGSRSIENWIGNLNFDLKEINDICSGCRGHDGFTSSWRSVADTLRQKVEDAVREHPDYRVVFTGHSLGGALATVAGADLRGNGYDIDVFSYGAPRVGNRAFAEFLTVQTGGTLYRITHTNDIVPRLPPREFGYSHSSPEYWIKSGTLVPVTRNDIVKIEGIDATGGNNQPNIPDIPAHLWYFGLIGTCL
# ASSAY INFO: Lipase storage stability in liquid formulations at 37° C. (pNP-valerate activity)
# Format: biochemical, Thermomyces lanuginosa
# ASSAY SETUP: base formulation IV. (Lipolase 0.2 wt%, tested compound 2.0 wt%); T0; relative to 100% value of reference formulation at time 0
In this section, each of the compounds is paired with its reported lipase activity, T0.
OUTCOME MEASURE: lipase activity, T0 (%)

{"COMPOUND": "O=C(O)CC(O)(CC(=O)O)C(=O)O [B.1, citric acid, reference compound]", "OUTPUT UNIT": "%", "OBSERVED": 97}
{"COMPOUND": "CCCCOC(=O)CC(O)(CC(=O)OCCCC)C(=O)OCCCC [A.3, Tributylcitrate]", "OUTPUT UNIT": "%", "OBSERVED": 99}
{"COMPOUND": "CCOC(=O)CC(O)(CC(=O)OCC)C(=O)OCC [A.1, Triethylcitrate]", "OUTPUT UNIT": "%", "OBSERVED": 98}
{"COMPOUND": "CCCCOC(=O)CC(CC(=O)OCCCC)(OC(C)=O)C(=O)OCCCC [A.4, Acetyltributylcitrate]", "OUTPUT UNIT": "%", "OBSERVED": 101}
{"COMPOUND": "CCOC(=O)C(=O)OCC [B.3, diethyloxalate, reference compound]", "OUTPUT UNIT": "%", "OBSERVED": 98}
{"COMPOUND": "CCOC(=O)CC(O)(CC(=O)O)C(=O)O (centres unmarked) [A.6, Monoethylcitrate]", "OUTPUT UNIT": "%", "OBSERVED": 98}
{"COMPOUND": "CC(=O)OCC(COC(C)=O)OC(C)=O [B.4, glyceroltriacetate (triacetine), reference compound]", "OUTPUT UNIT": "%", "OBSERVED": 97}
{"COMPOUND": "O=C([O-])CC(O)(CC(=O)[O-])C(=O)[O-].[Na+].[Na+].[Na+] [B.2, citric acid trisodiumsalt, reference compound]", "OUTPUT UNIT": "%", "OBSERVED": 96}

====

# STUDY SYSTEM: Lipolase® 100L (Thermomyces lanuginosus)
# Construct: purchased Sigma-Aldrich
# ASSAY INFO: Lipase storage stability in liquid formulations at 37° C. (pNP-valerate activity)
# Assay type: biochemical, Thermomyces lanuginosa
# ASSAY SETUP: base formulation V. (Lipolase 0.2 wt%, tested compound 2.0 wt%); 35 d storage at 37° C.
OUTCOME MEASURE: lipase activity, 35 d (%)

{"MOLECULE": "O=C(CC(O)(CC(=O)OCc1ccccc1)C(=O)OCc1ccccc1)OCc1ccccc1 [A.8, Tribenzylcitrate]", "OBSERVED": 77}
{"MOLECULE": "CCOC(=O)CC(O)(CC(=O)OCC)C(=O)OCC [A.1, Triethylcitrate]", "OBSERVED": 79}
{"MOLECULE": "CCOC(=O)C(=O)OCC [B.3, diethyloxalate, reference compound]", "OBSERVED": 46}
{"MOLECULE": "O=C(O)CC(O)(CC(=O)O)C(=O)O [B.1, citric acid, reference compound]", "OBSERVED": 43}
{"MOLECULE": "CCCCOC(=O)CC(O)(CC(=O)OCCCC)C(=O)OCCCC [A.3, Tributylcitrate]", "OBSERVED": 73}
{"MOLECULE": "CCCCOC(=O)CC(CC(=O)OCCCC)(OC(C)=O)C(=O)OCCCC [A.4, Acetyltributylcitrate]", "OBSERVED": 74}
